Entries and their measured ncRNA array expression, patient 6 follow.
- Test system: ncRNAs (SEQ ID NO 28-89)
- protocol_summary: ncRNA arrays of melanocytes, keratinocytes, normal skin, melanoma cell lines and patient samples
- Design: species or system human
- cond: melanoma patient 6 sample compared to normal skin

For orientation, consider the following solved cases.
{"substance": "SEQ ID NO 54 (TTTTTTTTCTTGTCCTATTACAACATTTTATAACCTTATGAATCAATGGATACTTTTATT; listed as DNA, chemistry not given here; listed as Homo sapiens)", "ncRNA array expression, patient 6": 0.568}
{"substance": "SEQ ID NO 31 (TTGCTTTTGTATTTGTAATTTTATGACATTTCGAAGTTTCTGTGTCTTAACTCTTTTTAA; listed as DNA, chemistry not given here; listed as Homo sapiens)", "ncRNA array expression, patient 6": 1.429}
{"substance": "SEQ ID NO 43 (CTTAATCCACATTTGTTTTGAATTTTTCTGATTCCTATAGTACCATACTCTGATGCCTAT; listed as DNA, chemistry not given here; listed as Homo sapiens)", "ncRNA array expression, patient 6": "−1.488"}
{"substance": "SEQ ID NO 30 (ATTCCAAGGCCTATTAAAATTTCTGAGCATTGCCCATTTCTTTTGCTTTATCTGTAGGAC; DNA, backbone and methylation of C not given here; listed as Homo sapiens)", "ncRNA array expression, patient 6": 2.191}
{"substance": "SEQ ID NO 89 (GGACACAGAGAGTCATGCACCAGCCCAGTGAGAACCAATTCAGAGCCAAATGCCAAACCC; listed as DNA, chemistry not given here; listed as Homo sapiens)", "ncRNA array expression, patient 6": "−0.6535"}
{"substance": "SEQ ID NO 82 (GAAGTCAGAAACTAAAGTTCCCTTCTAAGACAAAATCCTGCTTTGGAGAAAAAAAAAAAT; listed as DNA, chemistry not given here; listed as Homo sapiens)", "ncRNA array expression, patient 6": "−1.179"}
{"substance": "SEQ ID NO 53 (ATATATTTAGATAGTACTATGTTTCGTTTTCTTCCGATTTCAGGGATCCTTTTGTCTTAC; listed as DNA, chemistry not given here; listed as Homo sapiens)", "ncRNA array expression, patient 6": "−1.882"}
{"substance": "SEQ ID NO 58 (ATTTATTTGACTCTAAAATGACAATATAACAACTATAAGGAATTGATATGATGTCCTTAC; listed as DNA, chemistry not given here; listed as Homo sapiens)", "ncRNA array expression, patient 6": "−1.802"}

Now consider the entry below.
Data request: Which measured ncRNA array expression, patient 6 value corresponds to SEQ ID NO 29 (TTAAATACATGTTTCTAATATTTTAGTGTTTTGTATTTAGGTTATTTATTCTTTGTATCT; DNA, backbone and methylation of C not given here; listed as Homo sapiens) ?
Data returned: 1.012

---

- Test system: ncRNAs (SEQ ID NO 28-89)
- protocol_summary: ncRNA arrays of melanocytes, keratinocytes, normal skin, melanoma cell lines and patient samples
- Parameters: species or system human
- cond: melanoma patient 19 sample compared to normal skin
result_type: ncRNA array expression, patient 19

For orientation, consider the following solved cases.
{"substance": "SEQ ID NO 39 (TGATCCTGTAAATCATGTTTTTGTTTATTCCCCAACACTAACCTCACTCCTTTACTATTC; listed as DNA, chemistry not given here; listed as Homo sapiens)", "ncRNA array expression, patient 19": "−0.6006"}
{"substance": "SEQ ID NO 80 (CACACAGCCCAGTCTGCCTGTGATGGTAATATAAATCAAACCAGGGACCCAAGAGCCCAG; listed as DNA, chemistry not given here; listed as Homo sapiens)", "ncRNA array expression, patient 19": "−1.234"}

Data request: Which measured ncRNA array expression, patient 19 value corresponds to SEQ ID NO 85 (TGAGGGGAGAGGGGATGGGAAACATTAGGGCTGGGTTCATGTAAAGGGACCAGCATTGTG; listed as DNA, chemistry not given here; listed as Homo sapiens) ?
Data returned: −2.497

---

- System: ncRNAs (SEQ ID NO 28-89)
- protocol_summary: ncRNA arrays of melanocytes, keratinocytes, normal skin, melanoma cell lines and patient samples
- Set-up: species or system human
- cond: melanoma patient 7 sample compared to normal skin
result_type: ncRNA array expression, patient 7

For orientation, consider the following solved cases.
{"substance": "SEQ ID NO 51 (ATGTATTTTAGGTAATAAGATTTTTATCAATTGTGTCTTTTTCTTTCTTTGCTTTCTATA; listed as DNA, chemistry not given here; listed as Homo sapiens)", "experimental_result": 1.14}
{"substance": "SEQ ID NO 72 (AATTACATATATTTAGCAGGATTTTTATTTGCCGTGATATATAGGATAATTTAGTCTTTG; listed as DNA, chemistry not given here; listed as Homo sapiens)", "experimental_result": 2.665}
{"substance": "SEQ ID NO 35 (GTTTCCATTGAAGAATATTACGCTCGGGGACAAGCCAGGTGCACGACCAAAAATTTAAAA; DNA, backbone and methylation of C not given here; listed as Homo sapiens)", "experimental_result": 3.025}
{"substance": "SEQ ID NO 57 (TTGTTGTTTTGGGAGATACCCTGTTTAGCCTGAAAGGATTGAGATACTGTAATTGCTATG; listed as DNA, chemistry not given here; listed as Homo sapiens)", "experimental_result": 0.6099}
{"substance": "SEQ ID NO 54 (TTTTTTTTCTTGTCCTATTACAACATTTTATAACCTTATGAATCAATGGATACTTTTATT; listed as DNA, chemistry not given here; listed as Homo sapiens)", "experimental_result": 1.3}

Data request: Which measured ncRNA array expression, patient 7 value corresponds to SEQ ID NO 48 (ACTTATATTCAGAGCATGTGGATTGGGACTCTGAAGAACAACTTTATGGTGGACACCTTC; listed as DNA, chemistry not given here; listed as Homo sapiens) ?
Data returned: 0.648

Data request: Which measured ncRNA array expression, patient 7 value corresponds to SEQ ID NO 89 (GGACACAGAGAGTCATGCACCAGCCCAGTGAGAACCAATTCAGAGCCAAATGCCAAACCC; listed as DNA, chemistry not given here; listed as Homo sapiens) ?
Data returned: −0.5162

Data request: Which measured ncRNA array expression, patient 7 value corresponds to SEQ ID NO 29 (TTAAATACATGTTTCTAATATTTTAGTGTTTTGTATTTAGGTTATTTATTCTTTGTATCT; DNA, backbone and methylation of C not given here; listed as Homo sapiens) ?
Data returned: 2.658

Data request: Which measured ncRNA array expression, patient 7 value corresponds to SEQ ID NO 65 (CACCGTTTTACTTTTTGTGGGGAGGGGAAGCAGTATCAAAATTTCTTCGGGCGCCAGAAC; listed as DNA, chemistry not given here; listed as Homo sapiens) ?
Data returned: −1.264

Data request: Which measured ncRNA array expression, patient 7 value corresponds to SEQ ID NO 75 (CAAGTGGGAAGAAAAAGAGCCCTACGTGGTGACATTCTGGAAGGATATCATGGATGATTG; listed as DNA, chemistry not given here; listed as Homo sapiens) ?
Data returned: 2.114

---

- Tested on: ncRNAs (SEQ ID NO 28-89)
- protocol_summary: ncRNA arrays of melanocytes, keratinocytes, normal skin, melanoma cell lines and patient samples
- Set-up: species or system human
- cond: melanoma patient 21 sample compared to normal skin
result_type: ncRNA array expression, patient 21
When you answer, write just the number.

For orientation, consider the following solved cases.
{"substance": "SEQ ID NO 36 (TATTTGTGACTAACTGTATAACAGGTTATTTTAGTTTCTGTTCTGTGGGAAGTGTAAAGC; listed as DNA, chemistry not given here; listed as Homo sapiens)", "ncRNA array expression, patient 21": 3.909}
{"substance": "SEQ ID NO 72 (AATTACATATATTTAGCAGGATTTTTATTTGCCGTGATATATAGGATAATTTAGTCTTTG; listed as DNA, chemistry not given here; listed as Homo sapiens)", "ncRNA array expression, patient 21": 0.6264}
{"substance": "SEQ ID NO 51 (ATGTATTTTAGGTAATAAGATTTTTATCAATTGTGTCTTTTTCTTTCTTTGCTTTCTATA; listed as DNA, chemistry not given here; listed as Homo sapiens)", "ncRNA array expression, patient 21": 1.298}
{"substance": "SEQ ID NO 78 (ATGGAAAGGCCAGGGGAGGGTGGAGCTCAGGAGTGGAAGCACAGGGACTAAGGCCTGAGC; listed as DNA, chemistry not given here; listed as Homo sapiens)", "ncRNA array expression, patient 21": "−3.781"}
{"substance": "SEQ ID NO 45 (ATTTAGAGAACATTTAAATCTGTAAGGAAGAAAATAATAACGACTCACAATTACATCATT; listed as DNA, chemistry not given here; listed as Homo sapiens)", "ncRNA array expression, patient 21": "−1.759"}
{"substance": "SEQ ID NO 65 (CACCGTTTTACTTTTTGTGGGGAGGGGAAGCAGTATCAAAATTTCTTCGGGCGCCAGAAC; listed as DNA, chemistry not given here; listed as Homo sapiens)", "ncRNA array expression, patient 21": "−1.289"}
{"substance": "SEQ ID NO 67 (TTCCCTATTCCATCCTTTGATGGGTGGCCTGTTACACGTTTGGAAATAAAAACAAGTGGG; listed as DNA, chemistry not given here; listed as Homo sapiens)", "ncRNA array expression, patient 21": 3.856}
{"substance": "SEQ ID NO 48 (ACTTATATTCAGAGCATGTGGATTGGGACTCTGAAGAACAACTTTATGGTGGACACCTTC; listed as DNA, chemistry not given here; listed as Homo sapiens)", "ncRNA array expression, patient 21": 1.144}

Data request: Which measured ncRNA array expression, patient 21 value corresponds to SEQ ID NO 31 (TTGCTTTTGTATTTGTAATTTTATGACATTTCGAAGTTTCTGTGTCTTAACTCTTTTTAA; listed as DNA, chemistry not given here; listed as Homo sapiens) ?
Data returned: 4.304

Data request: Which measured ncRNA array expression, patient 21 value corresponds to SEQ ID NO 50 (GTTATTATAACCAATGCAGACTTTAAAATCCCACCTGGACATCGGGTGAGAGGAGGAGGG; listed as DNA, chemistry not given here; listed as Homo sapiens) ?
Data returned: −1.854
